Measured Mean fluorescence intensity values are reported for all entries that follow.
System name: T1, human TIM-3 on CHOK1 stable cell line (CHOK1-hTIM-3) (human, UniProt Q8TDQ0 22-301)
T1 sequence: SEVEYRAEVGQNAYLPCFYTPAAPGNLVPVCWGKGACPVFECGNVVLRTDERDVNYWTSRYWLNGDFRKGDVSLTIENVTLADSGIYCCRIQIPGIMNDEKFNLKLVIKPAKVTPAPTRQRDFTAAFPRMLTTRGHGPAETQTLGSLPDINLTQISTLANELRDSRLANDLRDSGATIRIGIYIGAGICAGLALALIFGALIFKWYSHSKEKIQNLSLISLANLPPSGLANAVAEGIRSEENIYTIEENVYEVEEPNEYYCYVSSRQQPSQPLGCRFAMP
Measurement protocol: FACS, CHOK1-hTIM-3 cells, 0.32 nM antibody
API note: the answer field is a bare number with no unit suffix.

Illustrative cases are given below, each with its answer.
Binder	Mean fluorescence intensity
34B6D8 fully human TIM-3 antibody (human IgG4, kappa) (antibody, V domains shown) VH: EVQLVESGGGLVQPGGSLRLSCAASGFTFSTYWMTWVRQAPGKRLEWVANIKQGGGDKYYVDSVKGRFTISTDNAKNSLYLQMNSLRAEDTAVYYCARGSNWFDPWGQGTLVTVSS VL: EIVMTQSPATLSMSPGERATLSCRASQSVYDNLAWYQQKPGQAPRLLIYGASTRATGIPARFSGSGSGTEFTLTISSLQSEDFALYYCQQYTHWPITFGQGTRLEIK	76.9
18D2H2 fully human TIM-3 antibody (human IgG4, kappa) (antibody, V domains shown) VH: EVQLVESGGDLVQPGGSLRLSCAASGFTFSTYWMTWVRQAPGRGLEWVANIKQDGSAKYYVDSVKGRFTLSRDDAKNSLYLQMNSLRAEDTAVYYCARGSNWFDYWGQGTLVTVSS VL: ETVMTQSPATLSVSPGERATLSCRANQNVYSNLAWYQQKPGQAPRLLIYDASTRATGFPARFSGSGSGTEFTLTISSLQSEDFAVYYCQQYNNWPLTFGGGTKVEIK	93.1
39E5H1 fully human TIM-3 antibody (human IgG4, kappa) (antibody, V domains shown) VH: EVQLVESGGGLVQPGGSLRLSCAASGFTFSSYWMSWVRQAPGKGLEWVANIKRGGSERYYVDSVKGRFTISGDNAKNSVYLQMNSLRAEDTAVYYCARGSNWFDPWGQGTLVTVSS VL: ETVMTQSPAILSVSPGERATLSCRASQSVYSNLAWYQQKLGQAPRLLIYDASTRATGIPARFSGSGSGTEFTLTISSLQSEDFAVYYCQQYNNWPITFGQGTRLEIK	73.1

# binder 57F4E5 fully human TIM-3 antibody (human IgG4, kappa) (antibody, V domains shown) VH: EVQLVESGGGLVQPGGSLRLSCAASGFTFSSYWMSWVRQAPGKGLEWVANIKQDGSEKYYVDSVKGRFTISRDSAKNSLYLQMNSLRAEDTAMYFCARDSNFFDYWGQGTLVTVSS VL: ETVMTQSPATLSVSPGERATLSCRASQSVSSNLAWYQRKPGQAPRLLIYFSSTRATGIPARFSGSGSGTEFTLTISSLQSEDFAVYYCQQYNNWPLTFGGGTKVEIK ; its Mean fluorescence intensity = 69.7

The origin of these recorded values is patent US20220033501A1.
